- test.protocol: Hemolytic activity in human RBC assessed as hemoglobin release after 24 hrs by spectrophotometry
- Type: ADME, cell-based, Erythrocyte
- protocol.conditions: human red blood cells (RBC), read-out: ID50
Listing of recorded HC50 at 24 h by entry.

// below: answered compounds
C/C(=N/NC(=N)N)c1ccccc1OCc1ccc2no[n+]([O-])c2c1 > 200 µM
CC(=O)c1ccccc1OCc1ccc2c(c1)=[N+]([O-])C(C)(C)[N+]=2[O-] < 50 µM
N=C(N)N/N=C\c1ccccc1OCc1ccc2no[n+]([O-])c2c1 58 µM
CC1(C)[N+]([O-])=c2ccc(COc3ccc(C=O)cc3)cc2=[N+]1[O-] 65 µM
CC1(C)[N+]([O-])=c2ccc(COc3ccc(/C=N/NC(=S)Nc4ccccc4)cc3)cc2=[N+]1[O-] < 50 µM

Prompt: Dear colleague, please send me the reported HC50 at 24 h for C[C@@H]1[C@H](O)[C@@H](C)/C=C/C=C/C=C/C=C/C=C/C=C/C=C/[C@H](O[C@@H]2O[C@H](C)[C@@H](O)[C@H](N)[C@@H]2O)C[C@@H]2O[C@](O)(C[C@@H](O)C[C@@H](O)[C@H](O)CC[C@@H](O)C[C@@H](O)CC(=O)O[C@H]1C)C[C@H](O)[C@H]2C(=O)O when you can.
Response: 1.5 µM

Prompt: Dear colleague, please send me the reported HC50 at 24 h for N=C(N)N/N=C/c1ccc(OCc2ccc3no[n+]([O-])c3c2)cc1 when you can.
Response: > 200 µM

Prompt: Dear colleague, please send me the reported HC50 at 24 h for O=Cc1ccccc1OCc1ccc2no[n+]([O-])c2c1 when you can.
Response: > 100 µM
